# System: SW-620
# test.summary: NCI tumour cell line growth inhibition, 48 h
Active and inactive are the calls of the source. Cut-off read from the data, not from the text of the source: active = GI50 up to about 1.1 µM and inactive = higher.

{"molecule": "COc1cc(OC)cc(-c2nc(O)c3ccccc3n2)c1", "GI50": "> 100 µM (inactive)"}
{"molecule": "CC(C)C(C/C=C1/CC(CO)(COC(=O)CC(C(C)C)C(C)C)OC1=O)C(C)C (stereo not given)", "GI50": "0.991 µM (active)"}
{"molecule": "C/C(=N\\NC(=O)c1ccccc1O)C1=CNc2ccccc2S1", "GI50": "3.65 µM (inactive)"}
{"molecule": "COc1ccccc1-n1cnc2c1=NC(C)(C)NC=2C(N)=O", "GI50": "> 100 µM (inactive)"}
{"molecule": "Cn1c2c(c3ccccc31)CC(=O)N1CCCCC1C21OCCO1 (stereo not given)", "GI50": "> 100 µM (inactive)"}
{"molecule": "COc1cc(S(=O)(=O)Nc2ccc(-c3csc(N4C(=O)C(C)SC4c4cccc(Oc5ccccc5)c4)n3)cc2)ccc1Cl (stereo not given)", "GI50": "59 µM (inactive)"}
{"molecule": "NC(=O)N/N=C1/c2ccccc2-n2nccc21", "GI50": "> 100 µM (inactive)"}
{"molecule": "N#CC(C(=O)CCC(=O)Nc1ccc(Cl)cc1)c1ccc(Cl)cc1 (stereo not given)", "GI50": "> 100 µM (inactive)"}
{"molecule": "O=C(O)/C(Cl)=C(/Cl)C(=O)Nc1cccc(Cl)c1", "GI50": "12.6 µM (inactive)"}
{"molecule": "C[C@]12CC[C@@H]3c4cc(I)c(O)cc4CC[C@H]3[C@@H]1CC[C@@H]2O", "GI50": "3.58 µM (inactive)"}

====

# System: HOP-92
# test.summary: NCI tumour cell line growth inhibition, 48 h
Calls of active or inactive are those of the source. No stated cut-off is given here; in the data, active = GI50 up to about 1.1 µM and inactive = higher.
In this section we review reported GI50 values for a set of molecules.
measured.quantity: GI50

{"molecule": "CC(C)(CO)NC1=C(Cl)C(=O)c2c(O)ccc(O)c2C1=O", "measured.quantity": "GI50", "recorded.measurement": "1.85 µM (inactive)"}
{"molecule": "C=CCOC(=O)CC[N+]1=CCC(c2ccccc2)(c2ccccc2)O1", "measured.quantity": "GI50", "recorded.measurement": "> 100 µM (inactive)"}
{"molecule": "CC(=O)NC1=C(C)C(=O)c2c(nc3n2CCC3OC(=O)CCl)C1=O (stereo not given)", "measured.quantity": "GI50", "recorded.measurement": "2.33 µM (inactive)"}
{"molecule": "O=C(CC(C(=O)c1ccco1)c1cccs1)c1cccs1 (stereo not given)", "measured.quantity": "GI50", "recorded.measurement": "59.4 µM (inactive)"}
{"molecule": "O=C1C2C(C(=O)N1c1ccccc1)C1(c3ccccc3)OC2(c2ccccc2)c2ccccc21 (stereo not given)", "measured.quantity": "GI50", "recorded.measurement": "1.93 µM (inactive)"}
{"molecule": "Cc1noc(C)c1C1=CCCCc2ccccc21", "measured.quantity": "GI50", "recorded.measurement": "26.5 µM (inactive)"}
{"molecule": "CN(C)C(=O)C(F)(F)C(c1ccccc1Br)C1C(=O)N(C)C(=O)N(C)C1=O (stereo not given)", "measured.quantity": "GI50", "recorded.measurement": "> 100 µM (inactive)"}
{"molecule": "COCC1N=C(c2cc(OC)c(OC)c(OC)c2-c2cc3c(cc2[C@@H](C)O)OCO3)O[C@H]1c1ccccc1 (stereo not given in full)", "measured.quantity": "GI50", "recorded.measurement": "34.4 µM (inactive)"}
{"molecule": "Fc1ccccc1/N=c1\\oc2ccc(Br)cc2cc1-c1nc2ccccc2[nH]1", "measured.quantity": "GI50", "recorded.measurement": "18 µM (inactive)"}
{"molecule": "O=C(O)C1CCCCN1CCc1c[nH]c2ccccc12 (stereo not given)", "measured.quantity": "GI50", "recorded.measurement": "30.7 µM (inactive)"}
{"molecule": "OC(c1ccsc1)c1cc2ccccc2s1 (stereo not given)", "measured.quantity": "GI50", "recorded.measurement": "> 10 µM (inactive)"}
{"molecule": "O=C(c1ccc(O)c([N+](=O)[O-])c1)c1ccc(O)c([N+](=O)[O-])c1", "measured.quantity": "GI50", "recorded.measurement": "24 µM (inactive)"}
{"molecule": "COc1cc(C2c3cc4c(cc3C(=O)C3CCC(=O)N32)OCO4)cc(OC)c1O (stereo not given)", "measured.quantity": "GI50", "recorded.measurement": "> 50 µM (inactive)"}
{"molecule": "COC(=O)C(=O)C(C(=O)C(=O)Nc1ccccc1C(=O)OC)c1nc2ccc(C(=O)c3ccccc3)cc2nc1O (stereo not given)", "measured.quantity": "GI50", "recorded.measurement": "> 100 µM (inactive)"}
{"molecule": "S=C1NC2=C(COc3ccccc32)C(c2ccc(Cl)cc2)N1 (stereo not given)", "measured.quantity": "GI50", "recorded.measurement": "> 10 µM (inactive)"}
{"molecule": "COc1ccc(N2C(=O)C(=O)N(c3ccccc3[N+](=O)[O-])C2=S)cc1", "measured.quantity": "GI50", "recorded.measurement": "19.6 µM (inactive)"}
{"molecule": "CC1(C)/C(=N\\NC(N)=O)C2CCC1C2 (stereo not given)", "measured.quantity": "GI50", "recorded.measurement": "> 100 µM (inactive)"}
{"molecule": "CNC1C(=O)C(C)C(O)(C(CC(C)C(O)/C=C/C=C/CNC(=O)C(C)(C)C(O)\\C(C)=C/C=C\\C=C\\Cc2cnc(C)o2)OC)C12C(=O)OC2C.CNC1C(=O)C(C)C(O)(C(CC(C)C(O)/C=C/C=C/CNC(=O)C(C)(C)C(O)\\C(C)=C/C=C\\C=C\\Cc2cnc(C)o2)OC)C12C(=O)OC2COC (stereo not given)", "measured.quantity": "GI50", "recorded.measurement": "2.72 µM (inactive)"}
{"molecule": "CCOC(=O)C(O)Cc1cnc2ccccc2n1 (stereo not given)", "measured.quantity": "GI50", "recorded.measurement": "> 100 µM (inactive)"}
{"molecule": "CN(C)CCNC(=O)c1ccc(Cl)c2ccc(-c3ccccc3)nc12", "measured.quantity": "GI50", "recorded.measurement": "2.02 µM (inactive)"}

====

Here, each record is paired with measured GI50 data.
# Test system: K562
# test.summary: NCI tumour cell line growth inhibition, 48 h
The source made the active and inactive calls. Cut-off read from the data, not from the text of the source: active = GI50 up to about 1.1 µM and inactive = higher.

{"compound": "CN(C)CCNC(=O)c1ccc(Cl)c2ccc(-c3ccccc3)nc12", "GI50": "2.27 µM (inactive)"}
{"compound": "CC(C)C(C/C=C1/CC(CO)(COC(=O)CC(C(C)C)C(C)C)OC1=O)C(C)C (configuration not stated)", "GI50": "0.389 µM (active)"}
{"compound": "Nc1ccc(Sc2c3ccccc3nc3ccccc23)cc1", "GI50": "2.65 µM (inactive)"}
{"compound": "Cc1ccc(NCCN(C)C)c2c(=O)c3cc(O)ccc3sc12", "GI50": "1.5 µM (inactive)"}
{"compound": "CCN(CC)C(=O)C1=C(C)NC(C)=C(C(=O)N(CC)CC)C1", "GI50": "41.4 µM (inactive)"}
{"compound": "CC1=NN(C(=O)CC(=O)NC(=O)/C=C\\c2ccccc2)C(=O)C1/N=N/c1ccc([N+](=O)[O-])cc1 (configuration not stated)", "GI50": "53.2 µM (inactive)"}
{"compound": "CCOC(=O)C1(C(=O)OCC)C[C@@H](C)[C@@H](O)C1", "GI50": "> 100 µM (inactive)"}
{"compound": "c1ccc(C2[C@@H]3CCCc4ccccc4C3=NN2c2ccccc2)cc1 (some centres not stated)", "GI50": "32.7 µM (inactive)"}
{"compound": "O=C(O)C1CCCCN1CCc1c[nH]c2ccccc12 (configuration not stated)", "GI50": "> 100 µM (inactive)"}
{"compound": "Clc1ccc(OCCSCCCCCCCCCCSCCOc2ccc(Cl)cc2)cc1", "GI50": "> 100 µM (inactive)"}
{"compound": "O=C(O)/C=C/c1ccc(Oc2ccccc2C(=O)O)o1", "GI50": "> 10 µM (inactive)"}
{"compound": "C=C1C(=O)O[C@H]2C1C[C@H](O)/C(C)=C/CC[C@@]1(C)O[C@H]21 (some centres not stated)", "GI50": "8.53 µM (inactive)"}
{"compound": "Clc1ccc(CCN(CCc2ccc(Cl)c(Cl)c2)CCN2CCCC2)cc1Cl", "GI50": "2.25 µM (inactive)"}
{"compound": "Cc1ccccc1-c1nc2c(N)nc(N)nc2nc1N", "GI50": "0.723 µM (active)"}
{"compound": "C[C@@H](NS(=O)(=O)c1ccc(NC(=O)c2ccccc2)cc1)C(=O)O", "GI50": "> 100 µM (inactive)"}
{"compound": "O=C(/C=C(\\S/C=C(/c1ccccc1)N1CCn2c(C(=O)c3ccccc3)c(C(=O)c3ccccc3)c(C(=O)c3ccccc3)c21)C(=O)c1ccccc1)c1ccccc1", "GI50": "> 10 µM (inactive)"}
{"compound": "NC(Cc1ccc2nc3c4ccccc4c(=O)cc-3oc2c1)C(=O)O (configuration not stated)", "GI50": "> 100 µM (inactive)"}
{"compound": "CCOC(=O)c1nc2ccc(OC)cc2c2c1Cc1ccccc1-2", "GI50": "> 100 µM (inactive)"}
{"compound": "CCOc1ccccc1NC(=O)CCc1n[nH]c(=S)o1", "GI50": "> 100 µM (inactive)"}
{"compound": "O=C1CSc2cc([N+](=O)[O-])ccc2N1", "GI50": "> 100 µM (inactive)"}
{"compound": "COc1ccc(CC2Cc3ccccc3CC(=O)N2)cc1OC (configuration not stated)", "GI50": "44.9 µM (inactive)"}
{"compound": "CCOC(=O)C12CCCC1(O)N(NC(=O)c1cccc(Cl)c1)C(C)=C2C(=O)OC (configuration not stated)", "GI50": "96.6 µM (inactive)"}
